pest or weed control at 40 ppm for assorted molecules
system: Botrytis cinerea; assay: Test E: tomato botrytis, preventive spray on tomato seedlings; settings: Botrytis cinerea, in Solanum lycopersicum, topical, 72 h, read-out: Test E disease control rating
experimental.readout: pest or weed control at 40 ppm (%)

molecule: O=c1c(-n2cccn2)nc(Cl)c(-c2c(F)ccc(F)c2F)n1-c1ccccc1
u: %
reading: 99

molecule: O=c1c(-n2cccn2)nc(Cl)c(-c2c(F)cccc2F)n1-c1ccccc1
u: %
reading: 100

molecule: O=c1c(-n2cccn2)nc(Cl)c(-c2c(F)cc(F)cc2F)n1-c1cccc(F)c1
u: %
reading: 99

molecule: CC(C)Cn1c(-c2ccc(F)cc2Cl)c(Cl)nc(-n2cccn2)c1=O
u: %
reading: 100

molecule: COc1ccc(Cn2c(-c3c(F)cccc3F)c(Cl)nc(-n3cccn3)c2=O)cc1
u: %
reading: 0

====

test system: Erysiphe graminis f. sp. tritici; assay: Test L: wheat powdery mildew, preventive spray on wheat seedlings; conditions: Blumeria graminis, in Triticum aestivum, 168 h, read-out: Test L disease control rating, 200 ppm
pest or weed control at 200 ppm for assorted compounds

compound: CC(C)Cn1c(-c2ccc(F)cc2Cl)c(Cl)nc(-n2cccn2)c1=O [Compound 53]
pest or weed control at 200 ppm (%): 99
//
compound: CC(C)Cn1c(-c2c(F)cccc2F)c(Br)nc(-n2cccn2)c1=O [Compound 99]
pest or weed control at 200 ppm (%): 100
//
compound: CC(C)Cn1c(-c2c(F)cccc2F)c(Cl)nc(C#N)c1=O [Compound 5]
pest or weed control at 200 ppm (%): 97
//
compound: Cc1ccc(-c2nc(Cl)c(-c3c(F)cccc3F)n(CC(C)C)c2=O)nc1 [Compound 209]
pest or weed control at 200 ppm (%): 0
//
compound: CC(C)Cn1c(-c2c(F)cccc2F)c(Cl)nc(-c2cn(C)cn2)c1=O [Compound 85]
pest or weed control at 200 ppm (%): 0
//
compound: CC(C)Cn1c(-c2c(F)cccc2F)c(Cl)nc(-c2ccccn2)c1=O [Compound 2]
pest or weed control at 200 ppm (%): 100
//
compound: CC(C)Cn1c(-c2c(F)cccc2F)c(Cl)nc(-n2cccn2)c1=O [Compound 1]
pest or weed control at 200 ppm (%): 93

====

tested on: Colletotrichum orbiculare; experiment: Test B: cucumber Colletotrichum anthracnose, preventive spray on cucumber seedlings; settings: 200 ppm; 100 = 100% disease control, 0 = no control
Test B disease control rating for assorted molecules

molecule: Cc1ccn(-c2nc(Cl)c(C3CCCC3)n(CC(C)C)c2=O)n1
measured.target: Colletotrichum orbiculare
Test B disease control rating: 0%
//
molecule: CCC(C)Cn1c(-c2ccc(F)cc2Cl)c(Cl)nc(-n2ccc(C(OC)OC)n2)c1=O (racemic)
measured.target: Colletotrichum orbiculare
Test B disease control rating: 100%
//
molecule: CC(C)Cn1c(C2CCCC2)c(Cl)nc(-n2cccn2)c1=O
measured.target: Colletotrichum orbiculare
Test B disease control rating: 0%
//
molecule: CCC(C)CNC(=O)c1nc(Cl)c(-c2c(F)cccc2F)n(CC(C)CC)c1=O (stereo not drawn)
measured.target: Colletotrichum orbiculare
Test B disease control rating: 0%
//
molecule: CC(C)Cn1c(-c2c(F)cccc2F)c(Cl)nc(N2CCCC2)c1=O
measured.target: Colletotrichum orbiculare
Test B disease control rating: 0%
//
molecule: Cc1ccn(-c2nc(Cl)c(-c3cc4c(cc3Cl)OCO4)n(CC(C)C)c2=O)n1
measured.target: Colletotrichum orbiculare
Test B disease control rating: 0%
//
molecule: Cc1ccn(-c2nc(Cl)c(C(C)C)n(-c3ccccc3)c2=O)n1
measured.target: Colletotrichum orbiculare
Test B disease control rating: 0%
//
molecule: Cc1ccn(-c2nc(Cl)c(C(C)C)n(CC(C)C)c2=O)n1
measured.target: Colletotrichum orbiculare
Test B disease control rating: 0%
//
molecule: CCC(C)Cn1c(-c2c(F)cccc2F)c(Cl)nc(C(=O)NCC2CC2)c1=O (stereo not drawn)
measured.target: Colletotrichum orbiculare
Test B disease control rating: 93%
//
molecule: CCC(C)Cn1c(-c2c(F)cccc2F)c(Cl)nc(C(=O)NC)c1=O (stereo not drawn)
measured.target: Colletotrichum orbiculare
Test B disease control rating: 73%
//
molecule: CC(C)Cn1c(C2CC2)c(Cl)nc(-n2cccn2)c1=O
measured.target: Colletotrichum orbiculare
Test B disease control rating: 0%
//
molecule: CC(C)Cn1c(-c2cccc3c2OCO3)c(Cl)nc(-n2cccn2)c1=O
measured.target: Colletotrichum orbiculare
Test B disease control rating: 0%
//
molecule: CC(C)Cn1c(-c2ccc3c(c2)OC(F)(F)O3)c(Cl)nc(-n2cccn2)c1=O
measured.target: Colletotrichum orbiculare
Test B disease control rating: 0%
//
molecule: Cc1ccn(-c2nc(Cl)c(C(C)C)n(Cc3ccccc3)c2=O)n1
measured.target: Colletotrichum orbiculare
Test B disease control rating: 0%
//
molecule: CC(C)Cn1c(-c2cc3c(cc2Cl)OCO3)c(Cl)nc(-n2cccn2)c1=O
measured.target: Colletotrichum orbiculare
Test B disease control rating: 0%
//
molecule: CCC(C)Cn1c(-c2c(F)cccc2F)c(Cl)nc(C(=O)NC(C)C)c1=O (stereo not drawn)
measured.target: Colletotrichum orbiculare
Test B disease control rating: 93%
//
molecule: CC(C)Cn1c(-c2c(F)cccc2F)c(Cl)nc(-c2cnccn2)c1=O
measured.target: Colletotrichum orbiculare
Test B disease control rating: 0%
//
molecule: CCc1c(Cl)nc(-n2cccn2)c(=O)n1CC(C)C
measured.target: Colletotrichum orbiculare
Test B disease control rating: 0%

====

Test K disease control rating for assorted compounds
system: Puccinia recondita f. sp. tritici; experiment: Test K: wheat leaf rust, preventive spray on wheat seedlings; details: 40 ppm (marked *); 100 = 100% disease control, 0 = no control
Marks after values point to notes of the source that are not given here.

compound: O=c1c(-n2cccn2)nc(Cl)c(-c2ccc(F)cc2Cl)n1-c1ccccc1
Test K disease control rating: 92* %
//
compound: COCCn1c(-c2c(F)cccc2F)c(Cl)nc(-n2ccc(C)n2)c1=O
Test K disease control rating: 74* %
//
compound: O=c1c(-n2cccn2)nc(Cl)c(-c2c(F)cc(F)cc2F)n1-c1cccc(Cl)c1
Test K disease control rating: 100* %
//
compound: O=c1c(-n2cccn2)nc(Cl)c(-c2c(F)cc(F)cc2F)n1-c1cc(F)cc(F)c1
Test K disease control rating: 100* %
//
compound: Cc1ccn(-c2nc(Cl)c(-c3c(F)cccc3F)n(-c3cccc(C)c3C)c2=O)n1
Test K disease control rating: 95* %
//
compound: N#Cc1nc(Cl)c(-c2c(F)cccc2F)n(Cc2cccc(Cl)c2)c1=O
Test K disease control rating: 41* %
//
compound: O=c1c(-n2cccn2)nc(Cl)c(-c2c(F)cc(F)cc2F)n1Cc1cccc(C(F)(F)F)c1
Test K disease control rating: 93* %
//
compound: CC(C)Cn1c(-c2ccc(F)cc2Cl)c(Cl)nc(-n2cccn2)c1=O
Test K disease control rating: 100* %
//
compound: O=c1c(-n2cccn2)nc(Cl)c(-c2c(F)cccc2F)n1Cc1cccc(Cl)c1
Test K disease control rating: 97* %
//
compound: Cc1ccc(-n2c(-c3c(F)cccc3F)c(Cl)nc(-n3cccn3)c2=O)c(C)c1
Test K disease control rating: 91* %
//
compound: CC(C)Cn1c(-c2cccc(C#N)c2)c(Cl)nc(-n2cccn2)c1=O
Test K disease control rating: 0* %
//
compound: CCCCn1c(-c2ccc(F)cc2Cl)c(Br)nc(-n2cccn2)c1=O
Test K disease control rating: 95* %
//
compound: Cc1ccn(-c2nc(Cl)c(-c3c(F)cccc3F)n(-c3ccc(F)cc3)c2=O)n1
Test K disease control rating: 100* %
//
compound: Cc1cccc(-n2c(-c3c(F)cccc3F)c(Cl)nc(-n3cccn3)c2=O)c1C
Test K disease control rating: 98* %
//
compound: O=c1c(-n2cccn2)nc(Cl)c(-c2c(F)cc(F)cc2F)n1Cc1ccc(Br)cc1
Test K disease control rating: 98* %
//
compound: O=c1c(-n2cccn2)nc(Cl)c(-c2c(F)cc(F)cc2F)n1-c1ccc(Br)cc1
Test K disease control rating: 99* %
//
compound: Cc1ccn(-c2nc(Cl)c(-c3c(F)cccc3F)n(Cc3ccc(F)cc3)c2=O)n1 [compound 341]
Test K disease control rating: 100* %

====

system: Erysiphe graminis f. sp. tritici; assay: Test L: wheat powdery mildew, preventive spray on wheat seedlings; details: 40 ppm (*)
Marks after values point to notes of the source that are not given here.

molecule: CC(C)Cn1c(-c2ccc(C(F)(F)F)cc2)c(Cl)nc(-n2cncn2)c1=O [compound 76]
Test L disease control rating: 0* %

molecule: CC(C)Cn1c(-c2cc(Cl)cc(Cl)c2)c(Cl)nc(-n2cncn2)c1=O [compound 116]
Test L disease control rating: 0* %

molecule: CCC(C)Cn1c(-c2c(F)cccc2F)c(Cl)nc(-n2cccc2)c1=O (centres unmarked) [compound 82]
Test L disease control rating: 0* %

molecule: COc1cc(OC)c(-c2c(Cl)nc(-n3cncn3)c(=O)n2CC(C)C)c(OC)c1 [compound 112]
Test L disease control rating: 0* %

molecule: CCc1ccccc1-c1c(Cl)nc(-n2cccn2)c(=O)n1CC(C)C [compound 197]
Test L disease control rating: 0* %

molecule: CCC(C)Cn1c(-c2ccc(F)cc2Cl)c(Cl)nc(-n2cc(C)cn2)c1=O (centres unmarked) [compound 169]
Test L disease control rating: 75* %

molecule: CC(C)Cn1c(-c2ccccc2Cl)c(Cl)nc(-n2cccn2)c1=O [compound 193]
Test L disease control rating: 68* %

molecule: O=c1c(-n2cccn2)nc(Cl)c(-c2c(F)cccc2F)n1CCCl [compound 124]
Test L disease control rating: 0* %

molecule: Cc1cccc(-c2c(Cl)nc(-n3cncn3)c(=O)n2CC(C)C)c1 [compound 247]
Test L disease control rating: 0* %

molecule: COC(=O)c1ccc(-c2c(Cl)nc(-n3cncn3)c(=O)n2CC(C)C)cc1 [compound 146]
Test L disease control rating: 0* %

molecule: CC(C)Cn1c(-c2cc(F)cc(F)c2F)c(Cl)nc(-n2cccn2)c1=O [compound 139]
Test L disease control rating: 99* %

molecule: CC(C)Cn1c(-c2ccccc2Br)c(Cl)nc(-n2cccn2)c1=O [compound 195]
Test L disease control rating: 0* %

molecule: CCCCn1c(-c2c(F)cc(F)cc2F)c(Cl)nc(-n2cccn2)c1=O [compound 227]
Test L disease control rating: 99* %

molecule: CC(C)Cn1c(-c2cccnc2)c(Cl)nc(-n2cccn2)c1=O [compound 237]
Test L disease control rating: 0* %

molecule: CC1CCCCC1n1c(-c2c(F)cccc2F)c(Cl)nc(C#N)c1=O (centres unmarked) [compound 223]
Test L disease control rating: 51* %

molecule: CC(C)Cn1c(-c2ccc(Cl)s2)c(Cl)nc(-n2cncn2)c1=O [compound 157]
Test L disease control rating: 0* %

molecule: CC(C)Cn1c(-c2c(F)cccc2C(F)(F)F)c(Cl)nc(-n2cncn2)c1=O [compound 113]
Test L disease control rating: 0* %

molecule: CC(C)Cn1c(C(C)c2ccccc2)c(Cl)nc(-n2cncn2)c1=O (centres unmarked) [compound 133]
Test L disease control rating: 0* %

molecule: CC(C)Cn1c(-c2ccsc2)c(Cl)nc(-n2cncn2)c1=O [compound 159]
Test L disease control rating: 0* %

molecule: CC(C)Cn1c(-c2ccc(Cl)cc2F)c(Cl)nc(-n2cncn2)c1=O [compound 44]
Test L disease control rating: 0* %

molecule: CC(CS(C)(=O)=O)n1c(-c2c(F)cccc2F)c(Cl)nc(-n2cccn2)c1=O (centres unmarked) [compound 200]
Test L disease control rating: 0* %

molecule: CC(C)Cn1c(-c2c(F)cccc2F)c(Cl)nc(-c2ccncc2)c1=O [compound 84]
Test L disease control rating: 0* %

molecule: N#Cc1nc(Cl)c(-c2c(F)cccc2F)n(Cc2ccc(Cl)cc2)c1=O [compound 220]
Test L disease control rating: 0* %

molecule: CCC(C)Cn1c(-c2c(F)cccc2F)c(Cl)nc(-n2ccnc2C)c1=O (centres unmarked) [compound 69]
Test L disease control rating: 0* %

molecule: CC(C)Cn1c(C(C)c2ccccc2)c(Cl)nc(-n2cccn2)c1=O (centres unmarked) [compound 132]
Test L disease control rating: 0* %

molecule: CCCC(C)n1c(-c2c(F)cccc2F)c(Cl)nc(-n2cccn2)c1=O (centres unmarked) [compound 180]
Test L disease control rating: 95* %

molecule: CC(C)Cn1c(-c2ccc(Cl)s2)c(Cl)nc(-n2cccn2)c1=O [compound 152]
Test L disease control rating: 0* %

molecule: COc1ccccc1-c1c(Cl)nc(-n2cncn2)c(=O)n1CC(C)C [compound 177]
Test L disease control rating: 0* %

molecule: CC(C)Cn1c(-c2ccsc2)c(Cl)nc(-n2cccn2)c1=O [compound 154]
Test L disease control rating: 0* %

molecule: CS(=O)(=O)CCn1c(-c2c(F)cccc2F)c(Cl)nc(-n2cccn2)c1=O [compound 126]
Test L disease control rating: 0* %

molecule: O=c1c(-n2cccn2)nc(Cl)c(-c2c(F)cccc2F)n1Cc1ccc(Cl)cc1 [compound 221]
Test L disease control rating: 0* %

molecule: CC(C)Cn1c(-c2cccc(C(F)(F)F)c2)c(Cl)nc(-n2cccn2)c1=O [compound 233]
Test L disease control rating: 0* %

molecule: CS(=O)(=O)CCn1c(-c2c(F)cccc2F)c(Cl)nc(-n2cncn2)c1=O [compound 127]
Test L disease control rating: 0* %

molecule: CCCc1nccn1-c1nc(Cl)c(-c2c(F)cccc2F)n(CC(C)CC)c1=O (centres unmarked) [compound 71]
Test L disease control rating: 0* %

molecule: COCCn1c(-c2c(F)cccc2F)c(Cl)nc(-n2cncn2)c1=O [compound 96]
Test L disease control rating: 0* %
